- Assay System: human CRHR2-alpha (Homo sapiens)
- Sequence (Q13324 whole entry): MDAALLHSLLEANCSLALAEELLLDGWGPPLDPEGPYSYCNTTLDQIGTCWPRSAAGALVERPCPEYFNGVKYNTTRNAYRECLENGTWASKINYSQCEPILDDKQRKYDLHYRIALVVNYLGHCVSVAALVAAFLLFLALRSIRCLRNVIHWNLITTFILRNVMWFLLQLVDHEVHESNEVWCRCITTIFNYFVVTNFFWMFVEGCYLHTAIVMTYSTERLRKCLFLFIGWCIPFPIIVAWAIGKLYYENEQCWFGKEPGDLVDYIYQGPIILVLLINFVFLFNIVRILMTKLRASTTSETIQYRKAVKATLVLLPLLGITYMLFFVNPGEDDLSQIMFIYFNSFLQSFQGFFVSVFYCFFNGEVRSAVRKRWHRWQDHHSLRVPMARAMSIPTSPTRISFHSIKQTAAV
- Assay Remarks: cAMP functional assay for human CRHR2 (LANCE Ultra TR-FRET)
- Conditions Used: inhibition of cAMP production in CHO-K1 cells stably expressing human CRHR2-alpha, EC90 of human urocortin2 as agonist; read-out: IC50 against CRHR2
Documented IC50 across a set of compounds

Lab note: record IC50 of O=C(N[C@H]1CC[C@H](CN2C(=O)C(O)(c3sccc3F)c3ccccc32)CC1)c1cc(Cl)cnc1C(F)F (stereo partly shown) [Example 95] tested on human CRHR2-alpha (Homo sapiens).
< 200 nM

Lab note: record IC50 of Cc1ccc2c(c1)N(C[C@H]1CC[C@H](NC(=O)c3cc(Cl)cnc3C(F)F)CC1)C(=O)C2(O)c1ccncc1F (stereo partly shown) [Example 149] tested on human CRHR2-alpha (Homo sapiens).
< 200 nM

Lab note: record IC50 of O=C(N[C@H]1CC[C@H](CN2C(=O)C(O)(c3ccccc3F)c3cccc(F)c32)CC1)c1cc(Cl)cnc1C(F)F (mixture of isomers) [Example 82] tested on human CRHR2-alpha (Homo sapiens).
< 200 nM

Lab note: record IC50 of O=C(N[C@H]1CC[C@H](CN2C(=O)C(O)(c3cc(F)ccc3F)c3ccccc32)CC1)c1cc(Cl)cnc1C(F)F (stereo partly shown) [Example 58] tested on human CRHR2-alpha (Homo sapiens).
< 200 nM

Lab note: record IC50 of O=C(N[C@H]1CC[C@H](CN2C(=O)C(O)(c3cc(F)cs3)c3ccccc32)CC1)c1cc(Cl)cnc1C(F)F (stereo partly shown) [Example 98] tested on human CRHR2-alpha (Homo sapiens).
< 200 nM

Lab note: record IC50 of O=C(N[C@H]1CC[C@H](CN2C(=O)C(O)(c3ccc(F)c(F)c3F)c3ccccc32)CC1)c1cc(Cl)cnc1C(F)F (stereo partly shown) [Example 135] tested on human CRHR2-alpha (Homo sapiens).
< 200 nM

Lab note: record IC50 of Cc1cccc(C2(O)C(=O)N(C[C@H]3CC[C@H](NC(=O)c4cc(Cl)cnc4C(F)F)CC3)c3ccccc32)c1 (stereo partly shown) [Example 49] tested on human CRHR2-alpha (Homo sapiens).
< 200 nM
